target: Acetylcholinesterase (Homo sapiens, UniProt P22303); test: Inhibition of human erythrocyte AChE using acetylthiocholine as substrate preincubated for 5 mins followed by substrate addition by Ellman's reagent based spectrophotometric analysis
Sequence (P22303 whole entry): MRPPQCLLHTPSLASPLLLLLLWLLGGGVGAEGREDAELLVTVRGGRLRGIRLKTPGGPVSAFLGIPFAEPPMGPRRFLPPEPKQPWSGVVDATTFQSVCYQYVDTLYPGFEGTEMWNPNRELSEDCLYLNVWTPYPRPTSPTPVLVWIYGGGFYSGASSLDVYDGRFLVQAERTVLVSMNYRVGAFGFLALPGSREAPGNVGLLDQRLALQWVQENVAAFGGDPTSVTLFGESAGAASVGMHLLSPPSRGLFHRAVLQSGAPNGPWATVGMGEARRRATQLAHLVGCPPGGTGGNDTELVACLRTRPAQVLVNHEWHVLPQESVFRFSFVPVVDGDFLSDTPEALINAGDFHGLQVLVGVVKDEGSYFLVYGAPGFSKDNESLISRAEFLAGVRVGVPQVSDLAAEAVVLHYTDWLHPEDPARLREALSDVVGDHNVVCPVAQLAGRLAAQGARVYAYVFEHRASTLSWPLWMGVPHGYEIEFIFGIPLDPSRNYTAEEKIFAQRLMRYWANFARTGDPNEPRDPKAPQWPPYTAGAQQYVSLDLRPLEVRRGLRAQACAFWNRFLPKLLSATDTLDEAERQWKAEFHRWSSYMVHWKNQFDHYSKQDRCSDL
pIC50: −log10 of the molar value.
quantity: pIC50

INSERT INTO assay_data (structuresmiles, systemundertest, quantity, resultvalue) VALUES
  ('Cc1ccc(S(=O)(=O)NCCCCCNc2c3c(nc4ccccc24)CCCC3)cc1', 'Acetylcholinesterase (Homo sapiens, UniProt P22303)', 'pIC50', 7.21),
  ('CC(C)(C)c1ccc(CNCCNc2c3c(nc4ccccc24)CCCCC3)c(C(C)(C)C)c1O', 'Acetylcholinesterase (Homo sapiens, UniProt P22303)', 'pIC50', 5.72),
  ('CC(C)(C)c1ccc(/C=N/CCNc2c3c(nc4ccccc24)CCCCC3)c(C(C)(C)C)c1O', 'Acetylcholinesterase (Homo sapiens, UniProt P22303)', 'pIC50', 5.39);
